Task for the reader: assign each of the following compounds its reported percent inhibition of viability.
test system: normal primary NK cells, pool 3 (3 donors) (IL-2 2.5 ng/mL); experiment: percent inhibition of viability; higher = more inhibition; settings: 72 h; 1 nM
Quick reminder: number only, in %, skip the unit.

Exercise: Param item = O=C(Nc1cccc(C(F)(F)F)c1)Nc1cc(S(=O)(=O)NC2CC2)ccc1-c1ccsc1 [AGI-6780] (max concentration tested 10000 nM) ; retrieve measured percent inhibition of viability.
Key: -11.5

Exercise: Param item = N#CC[C@H](C1CCCC1)n1cc(-c2ncnc3[nH]ccc23)cn1 [Ruxolitinib] (max concentration tested 10000 nM) ; retrieve measured percent inhibition of viability.
Key: 3.79

Exercise: Param item = CC(C)(C)c1cnc(CSc2cnc(NC(=O)C3CCNCC3)s2)o1 [SNS-032] (max concentration tested 10000 nM) ; retrieve measured percent inhibition of viability.
Key: -17.4

====

tested on: normal NK cells expanded with K562-aAPC; assay: percent inhibition of viability; higher = more inhibition; conditions: 72 h; IL-2 2.5 ng/mL; 10000 nM
assay.metric: percent inhibition of viability (%)
Quick reminder: number only, in %, skip the unit.

Exercise: Param item = C#Cc1cccc(Nc2ncnc3cc(OC)c(OCCCCCCC(=O)NO)cc23)c1 [CUDC-101] (max concentration tested 10000 nM) ; retrieve measured percent inhibition of viability.
Key: 101

Exercise: Param item = CS(=O)(=O)OCCCCOS(C)(=O)=O [Busulfan] (max concentration tested 100000 nM) ; retrieve measured percent inhibition of viability.
Key: 12.1

Exercise: Param item = CNC(=O)c1ccc(N2C(=S)N(c3cnc(C#N)c(C(F)(F)F)c3)C(=O)C23CCC3)cc1F [ARN 509] (max concentration tested 10000 nM) ; retrieve measured percent inhibition of viability.
Key: 14.2

====

system: normal primary NK cells, pool 1 (3 donors), resting (IL-2 0 ng/mL); assay: percent inhibition of viability; higher = more inhibition; conditions: 72 h; 1 nM
assay.metric: percent inhibition of viability (%)
Quick reminder: number only, in %, skip the unit.

Exercise: Param item = CCn1cc(-c2ccnc3[nH]c(-c4cccc(CN(C)C)c4)cc23)c(-c2ccc(NC(=O)N(C)C)cc2)n1 (max concentration tested 1000 nM) ; retrieve measured percent inhibition of viability.
Key: -0.01

Exercise: Param item = O=C(Nc1cccnc1)N1CCC(Cc2cccc(Oc3ccc(C(F)(F)F)cn3)c2)CC1 [PF-3845] (max concentration tested 10000 nM) ; retrieve measured percent inhibition of viability.
Key: -8.45

Exercise: Param item = Cn1cnc2c(F)c(Nc3ccc(Br)cc3F)c(C(=O)NOCCO)cc21 [Binimetinib] (max concentration tested 1000 nM) ; retrieve measured percent inhibition of viability.
Key: 21.4

Exercise: Param item = C=C1C[C@@H]2[C@H](CC[C@]3(C)C(=O)CC[C@@H]23)[C@@]2(C)C=CC(=O)C=C12 [Exemestane] (max concentration tested 10000 nM) ; retrieve measured percent inhibition of viability.
Key: 3.47

Exercise: Param item = CCc1cc2c(cc1N1CCC(N3CCOCC3)CC1)C(C)(C)c1[nH]c3cc(C#N)ccc3c1C2=O [Alectinib] (max concentration tested 1000 nM) ; retrieve measured percent inhibition of viability.
Key: -4.08

Exercise: Param item = Oc1ncnc2[nH]ncc12 [Allopurinol] (max concentration tested 10000 nM) ; retrieve measured percent inhibition of viability.
Key: 22.9

Exercise: Param item = O=C(Nc1ccc(-c2ccnc(Nc3ccc(N4CCOCC4)cc3)n2)cc1)C1CCCN1 (stereo not given) [XL019] (max concentration tested 10000 nM) ; retrieve measured percent inhibition of viability.
Key: 1.73

Exercise: Param item = Cc1cc(C)c(CNC(=O)c2cc(-c3ccc(CN4CCOCC4)cc3)cc3c2cnn3C2CCCC2)c(=O)[nH]1 [EPZ-5687] (max concentration tested 10000 nM) ; retrieve measured percent inhibition of viability.
Key: -3.8

Exercise: Param item = CCc1cncnc1N1CCN(Cc2nc3ccc(C(F)(F)F)cc3[nH]2)CC1 (max concentration tested 10000 nM) ; retrieve measured percent inhibition of viability.
Key: -8.97

Exercise: Param item = Oc1ccc2c(c1)CC[C@H](c1ccccc1)[C@@H]2c1ccc(OCCN2CCCC2)cc1 [Lasofoxifene] (max concentration tested 1000 nM) ; retrieve measured percent inhibition of viability.
Key: -0.67

Exercise: Param item = Cc1cc(C)c(/C=C2\C(=O)Nc3ccccc32)[nH]1 [Semaxanib] (max concentration tested 10000 nM) ; retrieve measured percent inhibition of viability.
Key: -26.7

Exercise: Param item = N#CC[C@H](C1CCCC1)n1cc(-c2ncnc3[nH]ccc23)cn1 [Ruxolitinib] (max concentration tested 10000 nM) ; retrieve measured percent inhibition of viability.
Key: 7.5

Exercise: Param item = Nc1ncn([C@H]2C[C@H](O)[C@@H](CO)O2)c(=O)n1 [Decitabine] (max concentration tested 10000 nM) ; retrieve measured percent inhibition of viability.
Key: 3.59

Exercise: Param item = C[C@@H](Nc1cc(F)cc(F)c1)c1cc(C(=O)N(C)C)cc2c(=O)cc(N3CCOCC3)oc12 [AZD-8186] (max concentration tested 1000 nM) ; retrieve measured percent inhibition of viability.
Key: -3.52

Exercise: Param item = CCCS(=O)(=O)Nc1ccc(F)c(C(=O)c2c[nH]c3ncc(-c4ccc(Cl)cc4)cc23)c1F [Vemurafenib] (max concentration tested 10000 nM) ; retrieve measured percent inhibition of viability.
Key: 3.45

Exercise: Param item = O=C(/C=C/c1cccc(S(=O)(=O)Nc2ccccc2)c1)NO [Belinostat] (max concentration tested 10000 nM) ; retrieve measured percent inhibition of viability.
Key: -4.94

Exercise: Param item = O=C(c1ccc(OCCN2CCCCC2)cc1)c1c(-c2ccc(O)cc2)sc2cc(O)ccc12 [Raloxifene] (max concentration tested 10000 nM) ; retrieve measured percent inhibition of viability.
Key: 2.49

Exercise: Param item = COc1cccc2cc(-c3nc([C@H]4CC[C@H](C(=O)O)CC4)n4ncnc(N)c34)[nH]c12 [OSI-027] (max concentration tested 10000 nM) ; retrieve measured percent inhibition of viability.
Key: -7.98

Exercise: Param item = COc1cc2/c(=N/c3ccc(Br)cc3F)nc[nH]c2cc1OCC1CCN(C)CC1 [Vandetanib] (max concentration tested 1000 nM) ; retrieve measured percent inhibition of viability.
Key: -11.8

Exercise: Param item = Nc1nc(N)c2nc(-c3cccc(O)c3)c(-c3cccc(O)c3)nc2n1 [TG100-115] (max concentration tested 10000 nM) ; retrieve measured percent inhibition of viability.
Key: 0.41

Exercise: Param item = CCn1c(=O)c(-c2cc[nH]n2)cc2c(C)nc(N)nc21 [Voxtalisib] (max concentration tested 10000 nM) ; retrieve measured percent inhibition of viability.
Key: -7.13

Exercise: Param item = Cc1ccc(-c2cc(C(F)(F)F)nn2-c2ccc(S(N)(=O)=O)cc2)cc1 [Celecoxib] (max concentration tested 10000 nM) ; retrieve measured percent inhibition of viability.
Key: -5.64

Exercise: Param item = CN(C)C1CCN(C(=O)c2ccc(NC(=O)Nc3ccc(-c4nc(N5CCOCC5)nc(N5CCOCC5)n4)cc3)cc2)CC1 [Gedatolisib] (max concentration tested 1000 nM) ; retrieve measured percent inhibition of viability.
Key: -18.3

Exercise: Param item = Cn1cc(-c2ccc3nnc(C(F)(F)c4ccc5ncccc5c4)n3n2)cn1 (max concentration tested 10000 nM) ; retrieve measured percent inhibition of viability.
Key: -30.2

Exercise: Param item = C[C@]1(c2nc3c(C(N)=O)cccc3[nH]2)CCCN1 [Veliparib] (max concentration tested 10000 nM) ; retrieve measured percent inhibition of viability.
Key: -8.38

====

test system: normal NK cells expanded with K562-aAPC; assay: percent inhibition of viability; higher = more inhibition; settings: 72 h; IL-2 2.5 ng/mL; 100 nM
Task for the reader: assign each of the following compounds its reported percent inhibition of viability.
Quick reminder: number only, in %, skip the unit.

Exercise: Param item = CC[C@H](NC(=O)[C@H](C)NC)C(=O)N1C[C@@H](O)C[C@H]1Cc1c(-c2[nH]c3cc(F)ccc3c2C[C@@H]2C[C@H](O)CN2C(=O)[C@H](CC)NC(=O)[C@H](C)NC)[nH]c2cc(F)ccc12 [Birinapant] (max concentration tested 1000 nM) ; retrieve measured percent inhibition of viability.
Key: 10.2

Exercise: Param item = CC(C)c1cc(-c2n[nH]c(=O)n2-c2ccc3c(ccn3C)c2)c(O)cc1O [Ganetespib] (max concentration tested 1000 nM) ; retrieve measured percent inhibition of viability.
Key: 98.1

Exercise: Param item = O=C1CN2Cc3c(ccc(Cl)c3Cl)N=C2N1 [Anagrelide] (max concentration tested 10000 nM) ; retrieve measured percent inhibition of viability.
Key: -7.13

Exercise: Param item = NC(=O)N1CCC(CC(=O)N2CCC([C@H]3c4ncc(Br)cc4CCc4cc(Cl)cc(Br)c43)CC2)CC1 [Lonafarnib] (max concentration tested 10000 nM) ; retrieve measured percent inhibition of viability.
Key: 1.81

Exercise: Param item = C=CCNC1=C2C[C@@H](C)C[C@H](OC)[C@H](O)[C@@H](C)/C=C(\C)[C@H](OC(N)=O)[C@@H](OC)/C=C\C=C(/C)C(=O)NC(=CC1=O)C2=O [Tanespimycin] (max concentration tested 10000 nM) ; retrieve measured percent inhibition of viability.
Key: 32.3

Exercise: Param item = CS(=O)(=O)c1ccc(C(=O)Nc2ccc(Cl)c(-c3ccccn3)c2)c(Cl)c1 [Vismodegib] (max concentration tested 10000 nM) ; retrieve measured percent inhibition of viability.
Key: -4.57

Exercise: Param item = CN1CCC(CNc2ccc3ncc(-c4cccc(OC(F)(F)F)c4)n3n2)CC1 [SGI-1776] (max concentration tested 10000 nM) ; retrieve measured percent inhibition of viability.
Key: 3.74

Exercise: Param item = Cn1cc(-c2ccc3nnc(C(F)(F)c4ccc5ncccc5c4)n3n2)cn1 (max concentration tested 10000 nM) ; retrieve measured percent inhibition of viability.
Key: 2.32

Exercise: Param item = COC1=CC(c2cc3ccccc3[nH]2)=N/C1=C\c1[nH]c(C)cc1C [Obatoclax] (max concentration tested 10000 nM) ; retrieve measured percent inhibition of viability.
Key: 3.2

Exercise: Param item = C[C@@H](Oc1cc(-n2cnc3ccc(CN4CCN(C)CC4)cc32)sc1C(N)=O)c1ccccc1C(F)(F)F (max concentration tested 10000 nM) ; retrieve measured percent inhibition of viability.
Key: 55.8

Exercise: Param item = Cc1cc(C)c(CNC(=O)c2cc(-c3ccc(CN4CCOCC4)cc3)cc3c2cnn3C2CCCC2)c(=O)[nH]1 [EPZ-5687] (max concentration tested 10000 nM) ; retrieve measured percent inhibition of viability.
Key: -3.69

Exercise: Param item = COc1cc2c(Oc3ccc4[nH]c(C)cc4c3F)ncnc2cc1OCCCN1CCCC1 [Cediranib] (max concentration tested 1000 nM) ; retrieve measured percent inhibition of viability.
Key: 10.2

Exercise: Param item = Nc1nc(F)nc2c1ncn2[C@@H]1O[C@H](CO)[C@@H](O)[C@@H]1O [Fludarabine] (max concentration tested 10000 nM) ; retrieve measured percent inhibition of viability.
Key: -0.86

Exercise: Param item = CC[C@H](C)C(=O)O[C@H]1C[C@H](O)C=C2C=C[C@H](C)[C@H](CC[C@@H](O)C[C@@H](O)CC(=O)O)[C@H]21 [Pravastatin] (max concentration tested 10000 nM) ; retrieve measured percent inhibition of viability.
Key: 0.49

Exercise: Param item = Nc1nc2[nH]cc(CCc3ccc(C(=O)N[C@@H](CCC(=O)O)C(=O)O)cc3)c2c(=O)[nH]1 [Pemetrexed] (max concentration tested 10000 nM) ; retrieve measured percent inhibition of viability.
Key: 29.1

Exercise: Param item = C=CCc1cccc(/C=N/NC(=O)CN2CCN(Cc3ccccc3)CC2)c1O [PAC-1] (max concentration tested 10000 nM) ; retrieve measured percent inhibition of viability.
Key: 2.56

Exercise: Param item = CCCS(=O)(=O)Nc1ccc(F)c(C(=O)c2c[nH]c3ncc(-c4ccc(Cl)cc4)cc23)c1F [Vemurafenib] (max concentration tested 10000 nM) ; retrieve measured percent inhibition of viability.
Key: -9.37

Exercise: Param item = CN1CCN(c2ccc3nc(-c4c(N)c5c(F)cccc5[nH]c4=O)[nH]c3c2)CC1 [Dovitinib] (max concentration tested 10000 nM) ; retrieve measured percent inhibition of viability.
Key: 2.91

Exercise: Param item = C[C@@]1(C(=O)Nc2ccc(F)nc2)CCCN1c1nc(Nc2cc(C3CC3)n[nH]2)c2cccn2n1 (max concentration tested 10000 nM) ; retrieve measured percent inhibition of viability.
Key: -6.53

Exercise: Param item = COc1cc(OC2CCN(C)CC2)ccc1Nc1ncc2c(n1)n(C1CCCC1)c(=O)n2C [AZ 3146] (max concentration tested 10000 nM) ; retrieve measured percent inhibition of viability.
Key: -2.22

Exercise: Param item = Nc1nccc(-c2c(-c3ccc(F)cc3)ncn2C2CCCCC2)n1 (max concentration tested 10000 nM) ; retrieve measured percent inhibition of viability.
Key: 0.36

Exercise: Param item = CC(C)(C)c1cc(NC(=O)Nc2ccc(-c3cn4c(n3)sc3cc(OCCN5CCOCC5)ccc34)cc2)no1 [Quizartinib] (max concentration tested 1000 nM) ; retrieve measured percent inhibition of viability.
Key: 1.78

Exercise: Param item = Nc1nc(Cl)nc2c1ncn2[C@H]1C[C@H](O)[C@@H](CO)O1 [Cladribine] (max concentration tested 1000 nM) ; retrieve measured percent inhibition of viability.
Key: 100

Exercise: Param item = CN(C)CCOc1ccc(/C(=C(/CCCl)c2ccccc2)c2ccccc2)cc1 [Toremifene] (max concentration tested 10000 nM) ; retrieve measured percent inhibition of viability.
Key: -6.66

Exercise: Param item = CC(C)C[C@H](NC(=O)[C@H](Cc1ccccc1)NC(=O)c1cnccn1)B(O)O [Bortezomib] (max concentration tested 1000 nM) ; retrieve measured percent inhibition of viability.
Key: 101
